Molecular target: T1, murine CXCR5 (murine, UniProt Q04683 1-374)
T1 construct: whole, on cells; Endogenous receptor on mouse spleen cells cultured with LPS
T1 sequence (looked up): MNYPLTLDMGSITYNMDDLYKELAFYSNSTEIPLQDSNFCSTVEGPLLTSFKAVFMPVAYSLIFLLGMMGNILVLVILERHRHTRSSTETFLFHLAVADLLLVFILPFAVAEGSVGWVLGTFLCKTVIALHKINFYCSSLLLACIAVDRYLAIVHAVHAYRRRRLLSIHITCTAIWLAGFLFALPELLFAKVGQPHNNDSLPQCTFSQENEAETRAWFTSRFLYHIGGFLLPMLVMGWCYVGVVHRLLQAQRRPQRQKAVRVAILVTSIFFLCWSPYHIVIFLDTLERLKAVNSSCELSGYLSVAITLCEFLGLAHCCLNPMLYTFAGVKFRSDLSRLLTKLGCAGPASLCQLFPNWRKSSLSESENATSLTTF
Assay: flow cytometry on LPS-cultured mouse spleen cells, IgG titration
QUANTITY NAME: EC50

12D3 (antibody, V domains shown, tested as human IgG) VH: EVQLVESGGGLVKPGRSLRLSCAASGFTFSSYAMHWVRQAPGKGLEWVAVISYDGSNKYYADSVKGRFTISRDNSKNTLYLQMNSLRAEDTAVYYCARLRWLDYWGQGTLVTVSS VL: QPVLTQPASVSGSPGQSIAISCTGTSSDVGSNNRVSWYQQHPGKAPKLMIYEVDKRPSGVSNRFSGSKSGNTASLTISGLQAEDEADYYCGTWDSSLSAYVFGTGTKLTVL | 27 nM
